Values from ChEMBL document CHEMBL4387749

measured_on: Acetylcholinesterase (Electrophorus electricus, UniProt O42275)
Sequence (O42275 whole entry): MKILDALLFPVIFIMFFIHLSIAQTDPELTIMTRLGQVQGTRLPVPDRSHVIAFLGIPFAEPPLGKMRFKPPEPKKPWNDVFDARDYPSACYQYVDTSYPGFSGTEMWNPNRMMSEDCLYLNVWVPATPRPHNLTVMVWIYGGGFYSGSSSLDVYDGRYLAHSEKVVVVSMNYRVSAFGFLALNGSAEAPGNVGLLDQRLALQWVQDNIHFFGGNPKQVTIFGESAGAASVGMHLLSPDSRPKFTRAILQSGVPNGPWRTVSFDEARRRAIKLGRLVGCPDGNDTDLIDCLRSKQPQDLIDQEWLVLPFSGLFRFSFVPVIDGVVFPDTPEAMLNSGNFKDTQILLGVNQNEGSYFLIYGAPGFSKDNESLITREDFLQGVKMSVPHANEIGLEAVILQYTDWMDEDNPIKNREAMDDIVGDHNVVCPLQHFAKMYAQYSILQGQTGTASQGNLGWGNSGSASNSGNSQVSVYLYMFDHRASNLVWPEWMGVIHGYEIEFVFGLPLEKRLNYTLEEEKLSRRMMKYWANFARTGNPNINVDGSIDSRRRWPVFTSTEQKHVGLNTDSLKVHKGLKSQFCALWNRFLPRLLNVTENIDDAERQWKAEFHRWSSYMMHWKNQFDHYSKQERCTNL
The label is met for IC50 below 400 nM and not met for IC50 equal to or exceeding 400 nM.

For orientation, consider the following solved cases.
{"compound": "O=[N+]([O-])c1cccc(C2C=C(c3cccc4ccccc34)Nc3nncn32)c1 (stereo not given)", "class_name": "not met"}
{"compound": "Clc1ccc(C2C=C(c3cccc4ccccc34)Nc3nncn32)cc1 (stereo not given)", "class_name": "met"}
{"compound": "COc1ccc(-c2cc(-c3cccc4ccccc34)nc3nncn23)cc1OC", "class_name": "not met"}
{"compound": "CN(C)c1ccc(-c2cc(-c3cccc4ccccc34)nc3nncn23)cc1", "class_name": "met"}
{"compound": "COc1ccc(OC)c(C2C=C(c3cccc4ccccc34)Nc3nncn32)c1 (stereo not given)", "class_name": "not met"}
{"compound": "COc1ccc(C2C=C(c3cccc4ccccc34)Nc3nncn32)cc1 (stereo not given)", "class_name": "met"}

Kindly review the next compound as well.
Prompt: Take the compound Clc1ccccc1C1C=C(c2cccc3ccccc23)Nc2nncn21 (stereo not given) and say whether its IC50 is less than 400 nM.
Completion: met

====

measured_on: Cholinesterase (Equus caballus)
Sequence (P81908 whole entry): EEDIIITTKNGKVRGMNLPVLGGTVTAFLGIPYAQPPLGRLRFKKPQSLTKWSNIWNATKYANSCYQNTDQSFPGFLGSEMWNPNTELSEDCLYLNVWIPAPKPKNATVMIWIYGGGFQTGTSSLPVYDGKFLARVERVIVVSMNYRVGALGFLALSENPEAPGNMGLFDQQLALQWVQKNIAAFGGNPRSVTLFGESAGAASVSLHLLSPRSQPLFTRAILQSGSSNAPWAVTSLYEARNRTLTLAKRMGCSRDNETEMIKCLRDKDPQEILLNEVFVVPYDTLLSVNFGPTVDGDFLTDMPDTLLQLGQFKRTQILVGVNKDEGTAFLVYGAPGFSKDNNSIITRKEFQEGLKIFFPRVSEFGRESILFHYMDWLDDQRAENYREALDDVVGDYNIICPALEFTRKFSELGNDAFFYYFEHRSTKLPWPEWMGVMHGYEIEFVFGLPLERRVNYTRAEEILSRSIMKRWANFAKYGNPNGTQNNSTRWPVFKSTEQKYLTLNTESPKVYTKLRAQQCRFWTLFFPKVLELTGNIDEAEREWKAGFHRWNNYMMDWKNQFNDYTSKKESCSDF
assay_comment: Inhibition of equine serum BuChE using butyrylthiocholine iodide as substrate preincubated for 5 mins followed by substrate addition and measured after 5 mins by Ellman method
IC50 for assorted compounds

Examples with their reported IC50 follow.
{"compound": "c1coc(-c2cc(-c3cccc4ccccc34)nc3nncn23)c1", "measured_on": "Cholinesterase (Equus caballus)", "assay_metric": "IC50", "result": "0.528 µM"}
{"compound": "COc1ccc(C2C=C(c3cccc4ccccc34)Nc3nncn32)cc1 (stereo not given)", "measured_on": "Cholinesterase (Equus caballus)", "assay_metric": "IC50", "result": "0.15 µM"}
{"compound": "O=[N+]([O-])c1cccc(C2C=C(c3cccc4ccccc34)Nc3nncn32)c1 (stereo not given)", "measured_on": "Cholinesterase (Equus caballus)", "assay_metric": "IC50", "result": "> 100 µM"}

Prompt: Which value of IC50 has been reported for Fc1ccc(C2C=C(c3cccc4ccccc34)Nc3nncn32)cc1 (stereo not given) in the records?
Completion: 39 µM

Prompt: Entry Clc1ccccc1C1C=C(c2cccc3ccccc23)Nc2nncn21 (stereo not given) : reported IC50 = ?
Completion: 0.076 µM

Prompt: Record request: IC50 value, item COc1ccc(-c2cc(-c3cccc4ccccc34)nc3nncn23)cc1OC
Completion: > 100 µM

Prompt: Fill blank: measured IC50 of the compound c1ccc(-c2cc(-c3cccc4ccccc34)nc3nncn23)cc1 is ____.
Completion: > 100 µM

Prompt: Fill blank: measured IC50 of the compound Clc1ccc(C2C=C(c3cccc4ccccc34)Nc3nncn32)cc1 (stereo not given) is ____.
Completion: 0.9 µM

Prompt: Consider the compound COc1ccc(OC)c(C2C=C(c3cccc4ccccc34)Nc3nncn32)c1 (stereo not given) and give its measured IC50.
Completion: > 100 µM

Prompt: I am curious: what IC50 value has been reported for CN(C)c1ccc(-c2cc(-c3cccc4ccccc34)nc3nncn23)cc1 ?
Completion: 20.9 µM

====

measured_on: Amyloid-beta precursor protein (Homo sapiens, UniProt P05067)
Sequence (P05067 whole entry): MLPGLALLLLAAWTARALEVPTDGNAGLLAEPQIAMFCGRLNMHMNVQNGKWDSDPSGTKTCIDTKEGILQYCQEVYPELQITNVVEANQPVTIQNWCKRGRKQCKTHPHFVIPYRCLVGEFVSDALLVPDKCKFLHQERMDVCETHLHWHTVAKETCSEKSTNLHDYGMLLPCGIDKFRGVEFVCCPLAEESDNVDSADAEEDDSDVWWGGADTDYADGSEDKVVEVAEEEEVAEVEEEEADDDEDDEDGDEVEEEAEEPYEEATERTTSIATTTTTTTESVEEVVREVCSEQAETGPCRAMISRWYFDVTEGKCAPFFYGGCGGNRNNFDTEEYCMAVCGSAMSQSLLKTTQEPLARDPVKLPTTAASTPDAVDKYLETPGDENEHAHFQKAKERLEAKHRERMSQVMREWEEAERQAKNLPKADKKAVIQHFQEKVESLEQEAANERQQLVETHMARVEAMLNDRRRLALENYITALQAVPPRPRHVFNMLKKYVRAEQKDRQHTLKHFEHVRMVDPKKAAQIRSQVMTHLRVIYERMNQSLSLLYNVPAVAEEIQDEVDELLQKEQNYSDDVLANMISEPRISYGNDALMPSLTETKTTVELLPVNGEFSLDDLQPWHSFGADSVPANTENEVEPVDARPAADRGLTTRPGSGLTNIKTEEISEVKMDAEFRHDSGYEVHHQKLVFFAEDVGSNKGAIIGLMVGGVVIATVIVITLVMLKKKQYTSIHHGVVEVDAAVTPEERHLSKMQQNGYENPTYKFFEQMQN
assay_comment: Disaggregation of self-induced amyloid beta (1 to 42) (unknown origin) preformed fibrils measured after 24 hrs by ThT fluorescence assay relative to control
assay_metric: Activity (%)
The reply should be a number in %, with the unit left off.

{"compound": "CN(C)c1ccc(-c2cc(-c3cccc4ccccc34)nc3nncn23)cc1", "readout_number": 54.5}
{"compound": "O=[N+]([O-])c1cccc(C2C=C(c3cccc4ccccc34)Nc3nncn32)c1 (centres undefined)", "readout_number": 58.8}

Prompt: Entry COc1ccc(OC)c(C2C=C(c3cccc4ccccc34)Nc3nncn32)c1 (centres undefined) : reported Activity = ?
Completion: 47.9

Prompt: Please look up its Activity: Fc1ccc(C2C=C(c3cccc4ccccc34)Nc3nncn32)cc1 (centres undefined)
Completion: 62.6

====

assay_comment: Selectivity index, ratio of IC50 for equine serum BuChE to IC50 for electric eel Ache
assay_metric: Ratio IC50
Give the value as a plain number.

Here are 5 compounds together with their reported answers.
{"compound": "CN(C)c1ccc(-c2cc(-c3cccc4ccccc34)nc3nncn23)cc1", "Ratio IC50": 166}
{"compound": "Clc1ccc(C2C=C(c3cccc4ccccc34)Nc3nncn32)cc1 (centres undefined)", "Ratio IC50": 2.42}
{"compound": "Fc1ccc(C2C=C(c3cccc4ccccc34)Nc3nncn32)cc1 (centres undefined)", "Ratio IC50": 19.7}
{"compound": "COc1ccc(C2C=C(c3cccc4ccccc34)Nc3nncn32)cc1 (centres undefined)", "Ratio IC50": 17.4}
{"compound": "c1coc(-c2cc(-c3cccc4ccccc34)nc3nncn23)c1", "Ratio IC50": 37.7}

Pending compound:
Prompt: Entry under review: Clc1ccccc1C1C=C(c2cccc3ccccc23)Nc2nncn21 (centres undefined) . Reported Ratio IC50?
Completion: 1.03

====

# IC50 measurements, system: Acetylcholinesterase (Electrophorus electricus, UniProt O42275)
A number alone suffices; assume nM.

Record excerpt, results attached:
{"molecule": "c1coc(-c2cc(-c3cccc4ccccc34)nc3nncn23)c1", "IC50 (nM)": 14}
{"molecule": "Fc1ccc(C2C=C(c3cccc4ccccc34)Nc3nncn32)cc1 (stereo not drawn)", "IC50 (nM)": 1910}

Next, consider the following molecule.
Prompt: Hi! What's the reported IC50 for c1ccc(-c2cc(-c3cccc4ccccc34)nc3nncn23)cc1 on Acetylcholinesterase (Electrophorus electricus, UniProt O42275)?
Completion: 597

====

assay_comment: Selectivity index, ratio of IC50 for equine serum BuChE to IC50 for electric eel Ache
A collection of molecules and their measured Ratio IC50

{"molecule": "c1ccc(-c2cc(-c3cccc4ccccc34)nc3nncn23)cc1", "assay_metric": "Ratio IC50", "result": "> 168"}
{"molecule": "COc1ccc(OC)c(C2C=C(c3cccc4ccccc34)Nc3nncn32)c1 (stereo not drawn)", "assay_metric": "Ratio IC50", "result": "> 160"}

Prompt: What measured Ratio IC50 goes with COc1ccc(-c2cc(-c3cccc4ccccc34)nc3nncn23)cc1OC ?
Completion: > 33.4
